Test system: Rattus norvegicus
testProtocol: Antiinflammatory activity against carrageenan induced rat paw edema (CPE), dosed orally
Format: functional
assayMetric: Inhibition

{"columns": ["compound", "measurementTarget", "measured"],
 "data": [
  ["O=C(CN1CCN(CC(F)(F)F)CC1)Nc1nc2cc3nc(NC(=O)CN4CCN(CC(F)(F)F)CC4)sc3cc2s1", "Rattus norvegicus", "25%"],
  ["CCN(CC)CCCC(C)Nc1nc2cc3nc(NC(C)CCCN(CC)CC)sc3cc2s1 (stereo not given)", "Rattus norvegicus", "0%"],
  ["CCN(CC)C(=O)CNc1nc2cc3nc(NCC(=O)N(CC)CC)sc3cc2s1", "Rattus norvegicus", "5%"],
  ["CCN(CC)CC(=O)Nc1nc2c(C)c3nc(NC(=O)CN(CC)CC)sc3c(Cl)c2s1", "Rattus norvegicus", "18%"],
  ["CCN(CC)CCOc1ccc2c(c1)C(=O)c1cc(OCCN(CC)CC)ccc1-2", "Rattus norvegicus", "0%"]
]}

###

Tested on: Rattus norvegicus
testProtocol: Antiinflammatory activity against carrageenan induced rat paw edema (CPE), dosed orally
Format: functional

{"columns": ["molecule", "Inhibition, %"],
 "data": [
  ["O=C(CN1CCC(N2CCCCC2)CC1)Nc1nc2cc3nc(NC(=O)CN4CCC(N5CCCCC5)CC4)sc3cc2s1", 0],
  ["CC(=O)c1ccc(N2CCN(CC(=O)Nc3nc4cc5nc(NC(=O)CN6CCN(c7ccc(C(C)=O)cc7)CC6)sc5cc4s3)CC2)cc1", 40],
  ["CCN(CC)CC(=O)Nc1nc2c(s1)c(OC)cc1nc(NC(=O)CN(CC)CC)sc12", 32],
  ["CC1CCCN(CC(=O)Nc2nc3cc4nc(NC(=O)CN5CCCC(C)C5)sc4cc3s2)C1 (stereo not drawn)", 19],
  ["CC1CCN(CC(=O)Nc2nc3cc4nc(NC(=O)CN5CCC(C)CC5)sc4cc3s2)CC1", 20],
  ["CC1CN(CC(=O)Nc2nc3cc4nc(NC(=O)CN5CC(C)NCC5C)sc4cc3s2)C(C)CN1.Cl.Cl.Cl.Cl (stereo not drawn)", 0],
  ["COc1cc2nc(N)sc2c2nc(N)sc12", 43],
  ["CC1CCCC1NCC(=O)Nc1nc2cc3nc(NC(=O)CNC4CCCC4C)sc3cc2s1 (stereo not drawn)", 36],
  ["O=C(CN1CCCCC1CC1CCCCC1)Nc1nc2cc3nc(NC(=O)CN4CCCCC4CC4CCCCC4)sc3cc2s1 (stereo not drawn)", 0],
  ["O=C(CN1CCCCCC1)Nc1nc2cc3nc(NC(=O)CN4CCCCCC4)sc3cc2s1", 0],
  ["O=C(CN1CCN(c2cccc(C(F)(F)F)c2)CC1)Nc1nc2cc3nc(NC(=O)CN4CCN(c5cccc(C(F)(F)F)c5)CC4)sc3cc2s1", 0],
  ["O=C(CN1CCCC(CO)C1)Nc1nc2cc3nc(NC(=O)CN4CCCC(CO)C4)sc3cc2s1 (stereo not drawn)", 16],
  ["CCOC(=O)c1c2sc(N)nc2cc2nc(N)sc12", 2],
  ["O=C(CN1CCCCC1CCO)Nc1nc2cc3nc(NC(=O)CN4CCCCC4CCO)sc3cc2s1 (stereo not drawn)", 30],
  ["O=C(CN1CCC(c2ccccc2)CC1)Nc1nc2cc3nc(NC(=O)CN4CCC(c5ccccc5)CC4)sc3cc2s1", 1],
  ["Cl.Cl.O=C(CN1CCOCC1)Nc1nc2cc3nc(NC(=O)CN4CCOCC4)sc3cc2s1", 17],
  ["CCOC(=O)c1c2sc(NC(=O)CN(CC)CC)nc2c(C)c2nc(NC(=O)CN(CC)CC)sc12", 35],
  ["CN(CC(=O)Nc1nc2cc3nc(NC(=O)CN(C)C4CCCC4)sc3cc2s1)C1CCCC1", 6],
  ["CNc1nc2cc3nc(NC)sc3cc2s1.Cl.Cl", 24],
  ["Cl.Cl.O=C(CN1CCCCC1)Nc1nc2cc3nc(NC(=O)CN4CCCCC4)sc3cc2s1", 0.8],
  ["CCN(CC)CC(=O)Nc1nc2c(s1)c(OC)c(Cl)c1nc(NC(=O)CN(CC)CC)sc12", 17],
  ["CCOC(=O)c1c2sc(NC(=O)CN(CC)CC)nc2c(Cl)c2nc(NC(=O)CN(CC)CC)sc12", 5],
  ["CCN(CC)CC(=O)Nc1nc2cc3sc(NC(=O)CN(CC)CC)nc3cc2s1.Cl.Cl", 9],
  ["O=C(CN1CCSCC1)Nc1nc2cc3nc(NC(=O)CN4CCSCC4)sc3cc2s1", 7],
  ["O=C(CNC1CCCCCC1)Nc1nc2cc3nc(NC(=O)CNC4CCCCCC4)sc3cc2s1", 0],
  ["CCNC(=O)Nc1nc2cc3nc(NC(=O)NCC)sc3cc2s1", 6],
  ["CCC1CCCCN1CC(=O)Nc1nc2cc3nc(NC(=O)CN4CCCCC4CC)sc3cc2s1 (stereo not drawn)", 12],
  ["CCOC(=O)N1CCN(CC(=O)Nc2nc3cc4nc(NC(=O)CN5CCN(C(=O)OCC)CC5)sc4cc3s2)CC1.Cl.Cl", 17],
  ["O=C(CNc1ccccc1)Nc1nc2cc3nc(NC(=O)CNc4ccccc4)sc3cc2s1", 0],
  ["CC(C)NCC(=O)Nc1nc2cc3nc(NC(=O)CNC(C)C)sc3cc2s1", 28],
  ["CCN(CC)CC(=O)N(C)c1nc2c(ccc3sc(N(C)C(=O)CN(CC)CC)nc32)s1", 21],
  ["CCOCCN(CCOCC)CC(=O)Nc1nc2cc3nc(NC(=O)CN(CCOCC)CCOCC)sc3cc2s1", 0],
  ["CC1CCCCN1CC(=O)Nc1nc2cc3nc(NC(=O)CN4CCCCC4C)sc3cc2s1 (stereo not drawn)", 0],
  ["CCN(CC)CC(=O)Nc1nc2cc3nc(NC(=O)CN(CC)CC)sc3c(N)c2s1", 53],
  ["Nc1nc2c(Cl)c3nc(N)sc3c(C(F)(F)F)c2s1", 13],
  ["O=C(CN1CCCC1)Nc1nc2cc3nc(NC(=O)CN4CCCC4)sc3cc2s1", 17],
  ["O=C(CN1CCN(c2ccccc2)CC1)Nc1nc2cc3nc(NC(=O)CN4CCN(c5ccccc5)CC4)sc3cc2s1", 0],
  ["CCOC(=O)C1CCCCN1CC(=O)Nc1nc2cc3nc(NC(=O)CN4CCCCC4C(=O)OCC)sc3cc2s1 (stereo not drawn)", 20]
]}

###

Tested on: Rattus norvegicus
testProtocol: Antiinflammatory activity dosed orally against carrageenan induced rat paw edema(CPE)
Format: functional

{"columns": ["molecule", "readingUnit", "Inhibition"],
 "data": [
  ["CCN(CC)C(C)C(=O)Nc1nc2cc3nc(NC(=O)C(C)N(CC)CC)sc3cc2s1.Cl.Cl (centres undefined)", "%", 0],
  ["CCN(CC)CCC(=O)Nc1nc2cc3nc(NC(=O)CCN(CC)CC)sc3cc2s1", "%", 16],
  ["O=P1(N(CCCl)CCCl)NCCCO1 (centres undefined) [CYCLOPHOSPHAMIDE ANHYDROUS]", "%", 18],
  ["CCN(CC)CC(=O)Nc1nc2cc3nc(NC(=O)CCl)sc3cc2s1", "%", 25]
]}

###

The compounds listed here are annotated with their Inhibition.
Tested on: Rattus norvegicus
testProtocol: Antiinflammatory activity against carrageenan induced rat paw edema (CPE), dosed orally
Type: functional
assayMetric: Inhibition (%)

{"columns": ["structureNotation", "measurementTarget", "readingUnit", "measured"],
 "data": [
  ["CCN(CC)CC(=O)Nc1nc2c(Cl)c3nc(NC(=O)CN(CC)CC)sc3c(C#N)c2s1.Cl.Cl", "Rattus norvegicus", "%", 19],
  ["CCN(CC)CC(=O)Nc1nc2c(Cl)c3nc(NC(=O)CN(CC)CC)sc3c(Cl)c2s1", "Rattus norvegicus", "%", 19],
  ["Nc1nc2cc3nc(N)sc3cc2s1", "Rattus norvegicus", "%", 60]
]}

###

System: Rattus norvegicus
testProtocol: Antiinflammatory activity against carrageenan induced rat paw edema (CPE), dosed orally
Assay type: functional
Assign class by Inhibition: not lower than 10% means y; lower than 10% means n.

{"columns": ["compound", "assignedLabel"],
 "data": [
  ["CCN(CC)CC(=O)Nc1nc2cc3nc(NC(=O)CN(CC)CC)sc3c(Cl)c2s1", "n"],
  ["CCN(CC)CC(=O)N(C)c1nc2cc3nc(N(C)C(=O)CN(CC)CC)sc3cc2s1.Cl.Cl", "y"],
  ["CCOC(=O)c1c2nc(NC(=O)CN(CC)CC)sc2cc2sc(NC(=O)CN(CC)CC)nc12", "y"],
  ["O=C(CN1CCN(Cc2ccccc2)CC1)Nc1nc2cc3nc(NC(=O)CN4CCN(Cc5ccccc5)CC4)sc3cc2s1", "y"],
  ["O=C(CN1CCNCC1)Nc1nc2cc3nc(NC(=O)CN4CCNCC4)sc3cc2s1", "y"],
  ["O=C(CN1CCN(c2ccccn2)CC1)Nc1nc2cc3nc(NC(=O)CN4CCN(c5ccccn5)CC4)sc3cc2s1", "n"],
  ["CCN(CC)CCNc1nc2cc3nc(NCCN(CC)CC)sc3cc2s1", "y"],
  ["O=C(CN1CCN(c2ccc(F)cc2)CC1)Nc1nc2cc3nc(NC(=O)CN4CCN(c5ccc(F)cc5)CC4)sc3cc2s1", "y"],
  ["O=C(CNC1CCCCC1)Nc1nc2cc3nc(NC(=O)CNC4CCCCC4)sc3cc2s1", "y"],
  ["CCN(CC)CC(=O)Nc1nc2cc3nc(NC(=O)CN4CCCCC4)sc3cc2s1", "y"],
  ["CCN(CC)CC(=O)Nc1nc2cc3nc(N)sc3cc2s1", "y"],
  ["O=C(CN1CCN(c2ccc(Cl)cc2)CC1)Nc1nc2cc3nc(NC(=O)CN4CCN(c5ccc(Cl)cc5)CC4)sc3cc2s1", "y"],
  ["CN(C)CC(=O)Nc1nc2cc3nc(NC(=O)CN(C)C)sc3cc2s1", "n"],
  ["O=C(CNC1CCCC1)Nc1nc2cc3nc(NC(=O)CNC4CCCC4)sc3cc2s1", "y"],
  ["CCN(CC)CC(=O)Nc1nc2cc3nc(NC(=O)CN(CC)CC)sc3c(C)c2s1.Cl.Cl", "n"],
  ["N#Cc1c2sc(N)nc2c(Cl)c2nc(N)sc12", "n"],
  ["Nc1nc2c(Br)c3nc(N)sc3cc2s1", "y"],
  ["CC1CCC(NCC(=O)Nc2nc3cc4nc(NC(=O)CNC5CCC(C)C5)sc4cc3s2)C1 (stereo not given)", "y"],
  ["CCN(CC)CC(=O)N(CC)c1nc2cc3nc(N(CC)C(=O)CN(CC)CC)sc3c(Br)c2s1", "y"],
  ["CCN(CC)CC(=O)Nc1nc2cc3nc(NC(=O)CN(CC)CC)sc3c(OC)c2s1", "y"]
]}
